Test system: PC-3 PIP/flu tumor-bearing mice
experimentSummary: Biodistribution in PC-3 PIP/flu tumor-bearing mice
statedConditions: 30 min p.i., i.v.
readoutKind: Stomach (% IA/g)
One number for each entry, in % IA/g.

Before answering, review these 3 worked examples.
molecule	targetSystem	val
O=C([O-])CN1CCN(CC(=O)[O-])CCN(CC(=O)NCC2CCC(C(=O)NC(Cc3ccc4ccccc4c3)C(=O)NCCCCC(NC(=O)NC(CCC(=O)O)C(=O)O)C(=O)O)CC2)CCN(CC(=O)[O-])CC1.[68Ga+3] (stereo not shown) [^68Ga-PSMA-617]	PC-3 PIP/flu tumor-bearing mice	1.09
O=C([O-])CN1CCN(CC(=O)[O-])CCN(CC(=O)NCC2CCC(C(=O)NC(Cc3ccc4ccccc4c3)C(=O)NCCCCC(NC(=O)NC(CCC(=O)O)C(=O)O)C(=O)O)CC2)CCN(CC(=O)[O-])CC1.[44Sc+3] (stereo not shown) [^44Sc-PSMA-617]	PC-3 PIP/flu tumor-bearing mice	0.91
O=C([O-])CN(CCN(CC(=O)[O-])Cc1cc(CCC(=O)NCCCCCC(=O)NCCCC[C@H](NC(=O)N[C@@H](CCC(=O)O)C(=O)O)C(=O)O)ccc1[O-])Cc1cc(CCC(=O)O)ccc1[O-].[68Ga+3] [^68Ga-PSMA-11]	PC-3 PIP/flu tumor-bearing mice	0.85

Query O=C([O-])CN1CCN(CC(=O)[O-])CCN(CC(=O)NCC2CCC(C(=O)N[C@@H](Cc3ccc4ccccc4c3)C(=O)NCCCC[C@H](NC(=O)N[C@@H](CCC(=O)O)C(=O)O)C(=O)O)CC2)CCN(CC(=O)[O-])CC1.[177Lu+3] (stereo partly shown) [^177Lu-PSMA-617] yields Stomach of 0.98
